Taken from the PETadex activity labels (doi:10.1016/j.ijbiomac.2025.149745).

Parameter Proxy for plastic degradation: see the listing below.
Substrate: PEF
Test: Proxy for plastic degradation [Released monomer concentration (HPLC/LC-MS) (FDCA + MHEF)] (s⁻¹)
Conditions: pH 9

Sample answers from the record:
>  <PROTEIN>
unnamed (protein) MNFPRASRLMQAAVLGGLMAVSAAATAQTNPYARGPNPTAASLEASAGPFTVRSFTVSRPSGYGAGTVYYPTNAGGTVGAIAIVPGYTARQSSIKWWGPRLASHGFVVITIDTNSTLDQPSSRSSQQMAALRQVASLNGTSSSPIYGKVDTARMGVMGHSMGGGGSLISAANNPSLKAAAPQAPWDSSTNFSSVTVPTLIFACENDSIAPVNSSALPIYDSMSRNAKQFLEINGGSHSCANSGNSNQALIGKKGVAWMKRFMDNDTRYSTFACENPNSTRVSDFRTANCS

>  <Proxy for plastic degradation>
0.2

$$$$
>  <PROTEIN>
unnamed (protein) MNFPRASRLMQAAVLGGLMAVSAAATAQTNPYARGPNPTAASLEASAGPFTVRSFTVSRPSGYGAGTVYYPTNAGGTVGAIAIVPGYTARQSSIKWWGPRLASHGFVVITIDTNSTLDQPSSRSSQQMAALRQVASLNGTSSSPIYGKVDTARMGVMGWSMGGGGSLISAANNPSLKAAAPQAPWDSSTNFSSVTVPTLIFACENDSIAPVNSSALPIYDSMSRNAKQFLEINGGSHFCANSGNSNQALIGKKGVAWMKRFMDNDTRYSTFACENPNSTRVSDFRTANCS

>  <Proxy for plastic degradation>
0.35

$$$$

In: Record request: Proxy for plastic degradation value, item unnamed (protein) MNFPRASRLMQAAVLGGLMAVSAAATAQTNPYARGPNPTAASLEASAGPFTVRSFTVSRPSGYGAGTVYYPTNAGGTVGAIAIVPGYTARQSSIKWWGPRLASHGFVVITIDTNSTLDQPSSRSSQQMAALRQVASLNGTSSSPIYGKVDTARMGVMGHSMGGGGSLISAANNPSLKAAAPQAPWDSSTNFSSVTVPTLIFAAENDSIAPVNSSALPIYDSMSRNAKQFLEINGGSHFAANSGNSNQALIGKKGVAWMKRFMDNDTRYSTFACENPNSTRVSDFRTANCS
Out: 0

In: Would you kindly repeat that for unnamed (protein) MNFPRASRLMQAAVLGGLMAVSAAATAQTNPYARGPNPTAASLEASAGPFTVRSFTVSRPSGYGAGTVYYPTNAGGTVGAIAIVPGYTARQSSIKWWGPRLASHGFVVITIDTNSTLDQPSSRSSQQMAALRQVASLNGTSSSPIYGKVDTARMGVMGWSMGGGGSLISAANNPSLKAAAPQAPWDSSTNFSSVTVPTLIFAAENDSIAPVNSSALPIYDSMSRNAKQFLEINGGSHSAANSGNSNQALIGKKGVAWMKRFMDNDTRYSTFACENPNSTRVSDFRTANCS ?
Out: 0
